Where these numbers come from: ChEMBL document CHEMBL1667831

Test system: Staphylococcus aureus
Assay: Antibacterial activity against Staphylococcus aureus ATCC 29213
Format: functional
PROPERTY: MIC (µg/mL)
Numeric answer only, unit µg/mL assumed.

// MIC lookup, compound = `CC(C)[C@@H]1CC[C@@H](C)C[C@H]1OC(=O)NCCCCCCc1c[nH]c(N)n1.Cl` , result: 8

// MIC lookup, compound = `CC(C)[C@@H]1CC[C@@H](C)C[C@H]1OC(=O)N(CCCCCCc1cn(CCCCCCCc2c[nH]c(N)n2)nn1)CCc1ccccn1.Cl` , result: 4

// MIC lookup, compound = `CC(C)[C@@H]1CC[C@@H](C)C[C@H]1OC(=O)N(CCCCCCc1cn(CCCCCc2c[nH]c(N)n2)nn1)CCc1ccccn1.Cl` , result: 4

// MIC lookup, compound = `CC(C)[C@@H]1CC[C@@H](C)C[C@H]1OC(=O)NCCn1cc(CCCCCc2c[nH]c(N)n2)nn1.Cl` , result: 16

// MIC lookup, compound = `CC(C)[C@@H]1CC[C@@H](C)C[C@H]1OC(=O)N(CCCCCCc1cn(CCCCCCc2c[nH]c(N)n2)nn1)CCc1ccccn1.Cl` , result: 4

// MIC lookup, compound = `CC(C)[C@@H]1CC[C@@H](C)C[C@H]1OC(=O)NCCCCCc1c[nH]c(N)n1.Cl` , result: 32

// MIC lookup, compound = `CC(C)[C@@H]1CC[C@@H](C)C[C@H]1OC(=O)NCCCn1cc(CCCCCc2c[nH]c(N)n2)nn1.Cl` , result: 16

// MIC lookup, compound = `CC(C)[C@@H]1CC[C@@H](C)C[C@H]1OC(=O)NCCCCCCCc1c[nH]c(N)n1.Cl` , result: 8
